target: FXa (Homo sapiens (Human), UniProt P00742)
Sequence (P00742 235-488): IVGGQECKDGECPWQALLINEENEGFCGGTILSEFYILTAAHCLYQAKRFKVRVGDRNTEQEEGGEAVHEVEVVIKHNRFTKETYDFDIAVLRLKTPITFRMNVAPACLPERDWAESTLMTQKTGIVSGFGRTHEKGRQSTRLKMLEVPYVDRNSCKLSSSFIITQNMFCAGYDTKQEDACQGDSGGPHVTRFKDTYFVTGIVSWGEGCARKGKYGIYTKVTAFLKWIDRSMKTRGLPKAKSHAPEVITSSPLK
Sequence (P00742 41-179 partner): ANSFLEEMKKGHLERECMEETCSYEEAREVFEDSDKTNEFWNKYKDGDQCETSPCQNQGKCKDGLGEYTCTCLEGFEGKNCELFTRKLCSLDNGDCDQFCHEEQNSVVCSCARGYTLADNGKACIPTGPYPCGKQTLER
Readout Kind: IC50

Prompt line: For FXa (Homo sapiens (Human), UniProt P00742), provide IC50 of `CNC(=O)[C@H](CCCCNC(=N)N)NC(=O)c1csc([C@@H]2CCCN2C(=O)c2cn3cc(Cl)ccc3n2)n1` please.
Response line: > 10 µM

###

biological target: human activated kallikrein enzyme (Homo sapiens (Human)); experiment: Inhibition of human activated kallikrein enzyme, fluorogenic peptide substrate assay (two formats); type: biochemical; settings: Table 2; column head prints nM, ranges defined in μM; read-out: pKal EC50
Sequence (P03952 391-638): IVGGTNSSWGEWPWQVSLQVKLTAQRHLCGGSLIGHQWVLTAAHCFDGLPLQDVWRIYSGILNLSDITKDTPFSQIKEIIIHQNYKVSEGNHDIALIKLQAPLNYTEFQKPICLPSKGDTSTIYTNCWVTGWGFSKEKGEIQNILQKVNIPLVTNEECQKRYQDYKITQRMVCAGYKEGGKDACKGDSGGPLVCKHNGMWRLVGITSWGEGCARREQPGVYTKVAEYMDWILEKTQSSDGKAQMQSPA
Sequence (P03952 20-390 partner): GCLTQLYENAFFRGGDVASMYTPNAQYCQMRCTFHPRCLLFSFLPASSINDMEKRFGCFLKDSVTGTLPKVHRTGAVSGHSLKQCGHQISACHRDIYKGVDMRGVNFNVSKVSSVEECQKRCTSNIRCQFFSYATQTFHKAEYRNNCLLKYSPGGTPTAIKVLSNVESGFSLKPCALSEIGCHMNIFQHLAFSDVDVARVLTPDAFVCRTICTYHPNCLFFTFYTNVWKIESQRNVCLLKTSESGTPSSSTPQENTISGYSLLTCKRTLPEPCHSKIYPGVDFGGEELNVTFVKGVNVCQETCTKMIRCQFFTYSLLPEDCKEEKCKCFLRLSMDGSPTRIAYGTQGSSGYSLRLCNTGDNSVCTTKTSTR
Item-by-item account of EC50

A selection of reference data follows.
CNC(=O)[C@H](CCCCNC(=N)N)NC(=O)c1csc([C@@H]2C[C@@H](N)CN2C(=O)c2cc3cc(Cl)c(Cl)cc3s2)n1 [Compound 61]	100 to 1000 nM
CNC(=O)[C@H](CCCCNC(=N)N)NC(=O)c1csc([C@@H]2C[C@H](O)CN2C(=O)c2cn3cc(Cl)ccc3n2)n1 [Compound 37]	1000 to 5000 nM

Prompt line: Return reported EC50; argument: CNC(=O)[C@H](CCCCNC(=N)N)NC(=O)c1csc([C@@H]2C[C@@H](N)CN2C(=O)C2CCCCC2)n1 [Compound 17]
Response line: > 9900 nM

Prompt line: Return reported EC50; argument: CNC(=O)[C@H](CCCCNC(=N)N)NC(=O)c1csc([C@@H]2C[C@@H](N)CN2C(=O)c2ccc3ccccc3c2)n1 [Compound 40]
Response line: 1000 to 5000 nM

Prompt line: Return reported EC50; argument: CNC(=O)[C@@H](CCCCNC(=N)N)NC(=O)c1csc([C@@H]2CCCN2C(=O)c2cn3cc(Cl)ccc3n2)n1 [Compound 34]
Response line: > 9900 nM

Prompt line: Return reported EC50; argument: CNC(=O)[C@H](CCCCNC(C)=O)NC(=O)c1csc([C@@H]2C[C@@H](N)CN2C(=O)c2cn3cc(Cl)ccc3n2)n1 [Compound 26]
Response line: > 9900 nM

Prompt line: Return reported EC50; argument: N=C(N)c1ccc(CNC(=O)c2csc([C@@H]3C[C@@H](N)CN3C(=O)c3cn4cc(Cl)ccc4n3)n2)cc1 [Compound 47]
Response line: ≤ 100 nM

Prompt line: Return reported EC50; argument: CNC(=O)[C@@H](CCCCNC(=N)N)NC(=O)c1csc([C@@H]2C[C@@H](N)CN2C(=O)c2cn3cc(Cl)ccc3n2)n1 [Compound 12]
Response line: ≤ 100 nM

Source listed as patent US11168083B2.
